Test system: HS 578T breast
Assay: NCI-60 one-dose screen, 48 h (100 = growth as untreated, 0 = no growth, -100 = all killed)
Settings: 10 µM unless noted
This is part of a sample that, as a whole, favours compounds with a hit. Of some 83,000 tested, about 20% had one in any assay.

>  <molecule>
COc1ccc(OC)c2c1[nH]c(=O)c1c3ncccc3cn21

>  <growth / %>
69.2

$$$$
>  <molecule>
COC(=O)[C@]12CC[C@@H](C)[C@H](C)[C@@H]1C1=CC[C@@H]3[C@@]4(C)C(C=O)=C[C@@](C)(CO)[C@@H]4[C@H](O)C[C@@]3(C)[C@]1(C)CC2

>  <growth / %>
-15.6

$$$$
>  <molecule>
COc1ccc(N2CCN(c3nc(-c4cc(OC)c(OC)c(OC)c4)nc4ccccc34)CC2)cc1

>  <growth / %>
65.2

$$$$
>  <molecule>
O=C(Nc1cccc2c(O)c(N=Nc3ccc(S(=O)(=O)Nc4nccs4)cc3)cc(N=Nc3ccc(S(=O)(=O)Nc4nccs4)cc3)c12)C(Cl)Cl

>  <growth / %>
56.4

$$$$
>  <molecule>
CC(=O)[C@@H]1CC[C@]2(COS(=O)(=O)c3ccc(C)cc3)CC[C@]3(C)[C@H](CC[C@@H]4[C@@]5(C)CCCNC(C)(C)[C@@H]5CC[C@]43C)[C@@H]12

>  <growth / %>
81.7

$$$$
>  <molecule>
CCOc1ccccc1-c1cc(-c2cccs2)c(C#N)c(=O)[nH]1

>  <growth / %>
76.6

$$$$
>  <molecule>
CCCCN(CCCC)CC(C)(C)C(O)c1ccc(OC)c2ccccc12 (configuration not stated)

>  <growth / %>
55.7

$$$$

====

System: UACC-257 melanoma
Test: NCI-60 one-dose screen, 48 h (100 = growth as untreated, 0 = no growth, -100 = all killed)
Settings: 10 µM unless noted
The panel holds about 83,000 compounds, 20% with a hit somewhere; the sample as a whole holds those more often. Activity calls are given as the source filed them. How the source made its calls: active means growth percent below 10; inactive means the rest.
measured-attribute: growth

>  <compound>
Cc1ccc(C(=O)COc2cccc(/C=C3\Oc4ccccc4C3=O)c2)cc1

>  <assay-system>
UACC-257 melanoma

>  <measured-attribute>
growth

>  <observed>
129% (inactive)

$$$$
>  <compound>
Cc1cc(NCc2cc(Nc3ccnc4cc(Cl)ccc34)ccc2F)nc(N2CCSCC2)n1

>  <assay-system>
UACC-257 melanoma

>  <measured-attribute>
growth

>  <observed>
17.6% (inactive)

$$$$
>  <compound>
COc1cccc(-c2nc3sccn3c2/C=C/C(=O)c2ccc(C(F)(F)F)cc2)c1

>  <assay-system>
UACC-257 melanoma

>  <measured-attribute>
growth

>  <observed>
73.9% (inactive)

$$$$
>  <compound>
CCN(CC)CCCC(C)Nc1c2ccc(Cl)cc2nc2ccc(O)cc12 (stereo not drawn)

>  <assay-system>
UACC-257 melanoma

>  <measured-attribute>
growth

>  <observed>
-58.4% (active)

$$$$
>  <compound>
CCCCc1ccc(Nc2ccc(Nc3ccc(CCCC)cc3S(=O)(=O)O)c3c2C(=O)c2ccccc2C3=O)c(S(=O)(=O)O)c1

>  <assay-system>
UACC-257 melanoma

>  <measured-attribute>
growth

>  <observed>
88.3% (inactive)

$$$$
>  <compound>
CCN(CC)CCCCCCNc1cc(OC)c(Cl)c2cccnc12

>  <assay-system>
UACC-257 melanoma

>  <measured-attribute>
growth

>  <observed>
-1.76% (active)

$$$$
>  <compound>
CCOc1ccccc1-n1c(CN2CCN(C(=O)COc3ccc(CNCCCCCCN4C5CCCC4CC(OC(=O)Nc4cc(C)ccc4OC)C5)cc3)CC2)nc2ccccc2c1=O (stereo not drawn)

>  <assay-system>
UACC-257 melanoma

>  <measured-attribute>
growth

>  <observed>
-95.6% (active)

$$$$
>  <compound>
COc1cccc(-c2nn(-c3ccccc3)cc2-c2ccnc(NCCCNC(=O)c3cccc(C(F)(F)F)c3)c2)c1

>  <assay-system>
UACC-257 melanoma

>  <measured-attribute>
growth

>  <observed>
12.1% (inactive)

$$$$
